meta.source: paper PMC3132048

- procedure.details: Plasma pharmacokinetics after single subcutaneous dose
- Format: in vivo, rat
- assay.setup: female, Lewis, rat, plasma, sc, 500 nmol/kg, after single s.c. dose of unconjugated AMT 500 nmol/kg; read-out: Time to maximum concentration (converted)

compound: Nc1nc(N)c2nc(CNc3ccc(C(=O)N[C@@H](CCC(=O)O)C(=O)O)cc3)cnc2n1 [AMT, aminopterin]
Tmax: ~30 min

---

- procedure.details: Preliminary short-term toxicity / MTD in folate-deficient healthy rats
- Type: in vivo, rat
- assay.setup: rat, in vivo, sc; healthy rats on folate-deficient diet, four s.c. doses in 2 weeks; read-out: Maximum tolerated dose (MTD)

chemical.smiles: Nc1nc(N)c2nc(CNc3ccc(C(=O)N[C@@H](CCC(=O)O)C(=O)O)cc3)cnc2n1
MTD at 2 weeks / µmol/kg: 0.05
